Tested on: ACHN
Protocol: NCI tumour cell line growth inhibition, 48 h
Calls of active or inactive are those of the source. No stated cut-off is given here; in the data, active = GI50 up to about 1.1 µM and inactive = higher.
Observation type: GI50

Qu. What measured GI50 is associated with CCC(CO)Nc1nc(NCc2ccccc2)c2ncn(C(C)C)c2n1 (stereo not drawn) [(RS)-ROSCOVITINE] on ACHN?
Ans. 18.8 µM (inactive)

Qu. What measured GI50 is associated with O=C(Nc1cc([N+](=O)[O-])cc([N+](=O)[O-])c1)OC1C2CCC1C1OC1C2 (centres undefined) on ACHN?
Ans. > 50 µM (inactive)

Qu. GET /values?readout=GI50&system=ACHN&item= CC1CC(=O)N(N(C)C)C(C#N)(C#N)C1(C#N)C#N (centres undefined)
Ans. 15.4 µM (inactive)

Qu. Give ACHN GI50 for ClCCCc1ccccc1C1=NCCc2ccccc21
Ans. > 100 µM (inactive)

Qu. Form entry - test system: ACHN; read-out: GI50; compound: CC1=CC(=O)/C(=C/NC(N)=S)C(=O)O1
Ans. > 100 µM (inactive)

Qu. # query: GI50 | item Cc1ccc(-n2cc(-c3ccc(Cl)cc3)c3c2N=CN2N=C(c4ccco4)NC32)cc1 (centres undefined) | system: ACHN
Ans. 4.24 µM (inactive)

Qu. Lab note: need GI50 for C=C1C(=O)OC2CC(C)C(C(CC(C)=O)OC(C)=O)=CCC12 (centres undefined) on ACHN, anyone have it?
Ans. 9.27 µM (inactive)

Qu. Form: Entry = COC(=O)CNC(=O)/C=C/[C@H](O[Si](C)(C)C(C)(C)C)[C@H](/C=C/C(=O)NCC(=O)OC)O[Si](C)(C)C(C)(C)C | System = ACHN | GI50 = ____
Ans. > 25 µM (inactive)

Qu. Form: Entry = COC(=O)/C(=N\NC(C)(C)C)C(C(=O)OC)C(=O)C(=O)Nc1cc(Cl)ccc1Cl (centres undefined) | System = ACHN | GI50 = ____
Ans. > 100 µM (inactive)

====

Tested on: IGROV-1
Protocol: NCI tumour cell line growth inhibition, 48 h
Active and inactive are the calls of the source. No stated cut-off is given here; in the data, active = GI50 up to about 1.1 µM and inactive = higher.
The categories you may choose from are active, inactive

Worked set:
{"Compound": "O=C(O)C1CCCCN1c1ccccc1[N+](=O)[O-] (stereo not drawn)", "Label class": "inactive"}
{"Compound": "Brc1ccc2c(c1)C1=C(CO2)Cc2ccccc2O1", "Label class": "inactive"}
{"Compound": "Cc1cc2c(=O)cc(-c3ccc(Cl)cc3)oc2c(C(=O)O)c1C", "Label class": "inactive"}

Qu. Record lookup: outcome of this test for O=C(c1ccccc1)[C@H]1Nc2ccc(Cl)cc2[C@H]2CCC[C@@H]12 ?
Ans. inactive

Qu. Assay result, entry CC(C)(C)OC(=O)NCC(=O)NC1C/C(=N\O)c2sccc21 (stereo not drawn) — outcome?
Ans. inactive

====

Tested on: T47D
Protocol: NCI tumour cell line growth inhibition, 48 h
Active and inactive are the calls of the source. Cut-off read from the data, not from the text of the source: active = GI50 up to about 1.1 µM and inactive = higher.
Assign a class; possible classes are active, inactive

Examples from the recorded data:
{"Compound": "S=c1nc2[nH]c3ccc(Br)cc3c2n[nH]1", "Label class": "inactive"}
{"Compound": "CC1CC(=O)N(N(C)C)C(C#N)(C#N)C1(C#N)C#N (stereo not given)", "Label class": "inactive"}
{"Compound": "CN(C)Cc1cc(C(C)(C)C)cc(CN(C)C)c1O", "Label class": "inactive"}
{"Compound": "Nc1ncc(CN2CCOCC2)c(-c2ccccc2O)n1", "Label class": "inactive"}
{"Compound": "CCC1=C(c2ccc(OC)cc2)CC[C@@]2(CCNC2=O)[C@@H]1C", "Label class": "inactive"}
{"Compound": "CC(C)(C)OC(=O)NCC(=O)NC1C/C(=N\\O)c2sccc21 (stereo not given)", "Label class": "inactive"}

Qu. Hello, I am checking results. What call was entered for CO[C@H]1Nc2c(ccc(C)c2O)C(=O)N2C=C(/C=C/C(N)=O)C[C@@H]12 [ANTHRAMYCIN METHYL ETHER] ?
Ans. active

Qu. Recorded test call requested for Cc1nn(C(=O)Cc2ccccc2)c2c1C(c1ccc(Cl)cc1)SC(=N)N2 (stereo not given)
Ans. inactive

Qu. Hey, what did the test say about Cc1cc(CC(O)(C(F)(F)F)C(F)(F)F)cc(CC(O)(C(F)(F)F)C(F)(F)F)n1 ?
Ans. inactive

Qu. Entry O=C1/C(=C\c2ccc(O)cc2)CCC/C1=C/c1ccc(Cl)c(Cl)c1 : call = ?
Ans. inactive

====

Tested on: Malme-3M
Protocol: NCI tumour cell line growth inhibition, 48 h
Calls of active or inactive are those of the source. No stated cut-off is given here; in the data, active = GI50 up to about 1.1 µM and inactive = higher.
Form entry, call: pick from class 1 = active, class 0 = inactive

Field: example entries. Status: answers known.
{"Compound": "CCOC(=O)Cn1nnc2cc(Nc3nc4ccccc4nc3C(=O)OCC)ccc21", "Label class": "class 0"}
{"Compound": "CN(C)Cc1cc(C(C)(C)C)cc(CN(C)C)c1O", "Label class": "class 0"}

Qu. Field: outcome | Entry: COc1cc2c[n+](C)c3c4ccccc4ccc3c2cc1OC
Ans. class 0

Qu. // return assay outcome for N#CC12CNCC1CN=N2 (stereo unspecified)
Ans. class 0

Qu. Kindly provide the recorded test outcome for the following compound: S=P1(c2ccccc2)Nc2ccc(Cl)cc2N1 (stereo unspecified)
Ans. class 0

====

Test system: SK-MEL-28
Protocol: NCI tumour cell line growth inhibition, 48 h
Calls of active or inactive are those of the source. Cut-off read from the data, not from the text of the source: active = GI50 up to about 1.1 µM and inactive = higher. Peptide text beside a SMILES is read from it.
Parameter GI50: see the listing below.

{"Compound": "O=C1/C(=C/c2cccc([N+](=O)[O-])c2)Sc2scc(-c3ccc([N+](=O)[O-])cc3)[n+]21", "GI50": "25.5 µM (inactive)"}

Qu. Which measured GI50 value corresponds to C=C1CC(Cn2cc(Br)c(=O)[nH]c2=O)(c2ccc(-c3ccccc3)cc2)OC1=O (stereo not given) ?
Ans. 0.221 µM (active)

Qu. Consider the compound SC1=NC2=C(CSC/C2=C\c2ccccc2)C(c2ccccc2)N1 (stereo not given) and give its measured GI50.
Ans. > 100 µM (inactive)

Qu. // lookup GI50 for O=C(O)Cc1ccc(Nc2nc3cc(C(F)(F)F)ccc3nc2C(=O)O)cc1
Ans. > 100 µM (inactive)

Qu. Form field: reported GI50 of O=C1c2cc3ccccc3cc2C2(c3ccc(Cl)cc3)N[C@H]3CCCC[C@@H]3N12 (stereo not given in full)
Ans. 12.3 µM (inactive)

Qu. Could you tell me which GI50 is on file for Cc1ccc(/C=C2\Sc3scc(-c4ccccc4)[n+]3C2=O)cc1 ?
Ans. 51.5 µM (inactive)

Qu. For the compound shown here, O=C1/C(=C/c2ccc(Cl)cc2)CCC1CN1CCOCC1 (stereo not given) , give the reported GI50.
Ans. 8 µM (inactive)

Qu. So what does the record say about GI50 for NCC1OC(n2cnc3c(=O)[nH]c(N)nc32)C(O)C1O (stereo not given) ?
Ans. > 100 µM (inactive)

Qu. # GI50 lookup, item CCOC(=O)C1=C(NC)OC/C1=N\NC(=O)c1ccccc1O
Ans. 30.8 µM (inactive)

Qu. # input compound: NS(=O)(=O)c1ccc(NC(=O)c2cccc3c(Nc4ccc(S(N)(=O)=O)cc4)c4ccccc4nc23)cc1 ; wanted: its GI50
Ans. > 100 µM (inactive)

Qu. Quick check: GI50 of CC(=O)OC1C[C@@H](C)C2(C[C@H](O)c3ccoc3)C(=O)OC[C@]13C2CCC(O)C31CO1 (stereo not given in full) ?
Ans. > 100 µM (inactive)

Qu. Which value of GI50 has been reported for O=c1c2nn3c(=O)n(-c4ccccc4)c(=O)c3nn2c(=O)n1-c1ccccc1 in the records?
Ans. > 100 µM (inactive)

Qu. For C[C@@H]1CC[C@]2(C)C3(C)CC[C@]2(OC3=O)[C@@]12CC(c1ccoc1)OC2=O (stereo not given in full) , what is its reported GI50?
Ans. 26.7 µM (inactive)

Qu. I am curious: what GI50 value has been reported for CCOC(=O)C(C)c1c(C(=O)c2ccc(C)nc2)c2ccccc2n1C (stereo not given) ?
Ans. > 100 µM (inactive)

Qu. // GI50 lookup, key: CCC(C)C(NC(=O)C(NC(=O)C(CC(N)=O)NC(=O)CN)C(C)O)C(=O)NC(C(=O)NC(C)C(=O)NC(C(=O)NC(CCC(=O)O)C(=O)NC(CC(C)C)C(=O)NC(CC(=O)O)C(=O)NC(C(=O)NC(Cc1ccc(O)cc1)C(=O)N1CCCC1C(=O)O)C(C)O)C(C)C)C(C)C (stereo not given) (H-GNTIVAVELDTYP-OH; configuration not given here)
Ans. > 50 µM (inactive)

====

System: HL-60
Protocol: NCI tumour cell line growth inhibition, 48 h
The source made the active and inactive calls. Cut-off read from the data, not from the text of the source: active = GI50 up to about 1.1 µM and inactive = higher.
Your response should consist of one outcome taken from 1 (yes) (active), 0 (no) (inactive)

Use the examples below as a reference point.
{"Compound": "C=CCO[C@H]1CC[C@@]2(C)C(CC[C@]3(C)C2CC=C2[C@@H]4[C@@H](C)C(C)CC[C@]4(C(=O)O)CCC23C)C1(C)C (stereo not given in full)", "Experimental system": "HL-60", "Label class": "0 (no)"}
{"Compound": "COc1ccc2c(c1)N=C1CSC(c3cccc(Br)c3)N1C2 (stereo not given)", "Experimental system": "HL-60", "Label class": "0 (no)"}
{"Compound": "CCN1C(=O)C(=CN)C(=O)N(CC)C1=O", "Experimental system": "HL-60", "Label class": "0 (no)"}

Qu. Which outcome did this test record for the compound CCOC(=O)C1=C(NC)OC/C1=N\NC(=O)c1ccccc1O ?
Ans. 0 (no)

Qu. Dear all, I need the recorded test outcome for CSc1c(CC(=O)O)n(Cc2ccccc2)c2ccccc12 , thank you.
Ans. 0 (no)

Qu. Outcome? N[C@H](C(=O)O)[C@@H]1CC(Cl)=NO1
Ans. 0 (no)
